TARGET OR TEST SYSTEM: T1, BSA-conjugated Aβ heptapeptide LVFFAEC (reading uncertain; also: BSA conjugate);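 further: ELISA binding of human antibody (10 or 2 µg/ml) to plate-coated BSA–peptide conjugates, detected with HRP anti-human Ig and TMB colour, mock-treated BSA as negative control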
T1 construct: also called Peptide 17-22
T1 peptide: LVFFAEC([NSMP-BSA])
PROCEDURE SUMMARY: ELISA
Groups on a side chain read outwards from the residue. No end group written: not given here. NSMP = not defined here
QUANTITY KIND: Peptide-ratio 17-22/2-7

1. MS-R IgG1 7.9.H3 (antibody, V domains shown, full-length human IgG1; also called 7.9H3 IgG) VH: QVELVESGGGLVQPGGSLRLSCAASGFTFSSYAMSWVRQAPGKGLEWVSAINYQGNRKYYADSVKGRFTISRDNSKNTLYLQMNSLRAEDTAVYYCARGKGNTHKPYGYVRYFDVWGQGTLVTVSS VL: DIVLTQSPATLSLSPGERATLSCRASQSVSSSYLAWYQQKPGQAPRLLIYGASSRATGVPARFSGSGSGTDFTLTISSLEPEDFATYYCLQIYNMPITFGQGTKVEIK	0.46
